Entry source: PubChem BioAssay (NCI)

Test system: SR leukemia
MEASUREMENT_DESCRIPTION: NCI tumour cell line growth inhibition, 48 h
MEASUREMENT_KIND: GI50

Ask: Tell me GI50 reported for COc1cc(N2C(=O)[C@H](c3ccccc3)C2c2ccc(SC)cc2)cc(OC)c1OC (stereo not given in full)
Result: 41.1 nM

Ask: Tell me GI50 reported for O=C(c1ccc(C(F)(F)F)c(Cl)c1)N(Cc1ccc(Cl)cc1)c1ccc(-c2cc(C(F)(F)F)[nH]n2)c(O)c1
Result: 983 nM

Ask: Tell me GI50 reported for CN(C)CC(=O)Nc1ccc2ncnc(Nc3ccc(Oc4cccc(C(F)(F)F)c4)c(Cl)c3)c2c1
Result: 2460 nM

Ask: Tell me GI50 reported for Oc1c(Cl)cc(Cl)cc1/C=N/Nc1nnc(N/N=C/c2cc(Cl)cc(Cl)c2O)c2ccccc12
Result: 434 nM

Ask: Tell me GI50 reported for O=c1c2ccccc2c(/C=N\NC2=NCCN2)c2oc3ccccc3n12
Result: 6120 nM
